All figures here come from patent US20220089746A1.

# Assay target: T1, recombinant human galectin-7 (human, UniProt P47929 1-136)
# T1 construct: Prototypic galectin with one CRD; also called hGAL-7; human GAL-7
# T1 sequence (P47929 whole entry): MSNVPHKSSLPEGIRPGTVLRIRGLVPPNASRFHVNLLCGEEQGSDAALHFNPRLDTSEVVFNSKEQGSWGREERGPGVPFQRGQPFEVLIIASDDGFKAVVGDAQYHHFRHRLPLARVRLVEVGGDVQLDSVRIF
# Assay summary: ELISA of the selected nanobody clone on hGAL-7 with His-tagged MBP as control; y axis 'ELISA Ratio'; no concentration given

- Binder: "Nanobody 218_A01 (VHH, 175 aa with the tag, so CDR3 has 9 residues, which fits CDR set (a), (e) or (h)) VHH: EVQLQASGGGFVQPGGSLRLSCAASGAGSRSDVMGWFRQAPGKEREFVSAISGFWGWTTYYADSVKGRFTISRDNSKNTVYLQMNSLRAEDTATYYCALGGAPGQTGYWGQGTQVTVSS"
  binding result: "binds"
- Binder: "Nanobody 218_B04 (VHH, 175 aa with the tag, so CDR3 has 9 residues, which fits CDR set (a), (e) or (h)) VHH: EVQLQASGGGFVQPGGSLRLSCAASGRTSSQDIMGWFRQAPGKEREFVSAISDYSGGNVYYADSVKGRFTISRDNSKNTVYLQMNSLRAEDTATYYCAFLGEEKTSWYWGQGTQVTVSS"
  binding result: "binds"
- Binder: "Nanobody 216_D11 (VHH, 181 aa with the tag, so CDR3 has 15 residues, which fits CDR set (c) or (l)) VHH: EVQLQASGGGFVQPGGSLRLSCAASGDTSESTSMGWFRQAPGKEREFVSAISRSSTWDAYYADSVKGRFTISRDNSKNTVYLQMNSLRAEDTATYYCAMADIFDHPQNASFMKYWGQGTQVTVSS"
  binding result: "binds"
